System: UACC-257 melanoma
Protocol: NCI tumour cell line growth inhibition, 48 h
Outcome measure: TGI

## Input Tell me the measured TGI of `CP(C)C.[Ag][I]` , please.
## Output > 100 µM

## Input Tell me the measured TGI of `O=C1/C(=C\c2c(-c3ccccc3)nn(-c3ccccc3)c2O)C(c2ccccc2)=NN1c1ccccc1` , please.
## Output > 100 µM

## Input Tell me the measured TGI of `CCCCOc1ccc(S(=O)(=O)/N=C(\NN)Nc2ccc(Cl)cc2)cc1` , please.
## Output 68.7 µM

## Input Tell me the measured TGI of `CC[C@@]1(OC(=O)CN)C(=O)OCc2c1cc1n(c2=O)Cc2cc3c(N)c4c(cc3nc2-1)OCO4` , please.
## Output 0.228 µM

## Input Tell me the measured TGI of `C[C@H](O)C(=O)SC[C@H](NC(=O)CC[C@@H](N)C(=O)O)C(=O)NCC(=O)O` , please.
## Output > 100 µM

## Input Tell me the measured TGI of `C[N+]1=c2c3cccc4cccc(c(=O)n2CCC1)c43` , please.
## Output 32.9 µM

## Input Tell me the measured TGI of `COC(=O)/C(=C\C(=O)c1ccc(Br)cc1)NN=C(c1ccccc1)c1ccccc1` , please.
## Output > 10 µM

## Input Tell me the measured TGI of `CC[O-].CC[O-].O=C([CH-]C(=O)c1ccccc1)c1ccccc1.O=C([CH-]C(=O)c1ccccc1)c1ccccc1.[Ti+4]` , please.
## Output > 100 µM

## Input Tell me the measured TGI of CC(O)=NC(Cc1ccc2ccccc2c1)C(O)=NC(Cc1ccc(Cl)cc1)C(O)=NC(Cc1c[nH]c2ccccc12)C(O)=NC(CO)C(O)=NC(Cc1ccc(O)cc1)C(O)=NC(CCCN=C(N)N)C(O)=NC(CC(C)C)C(O)=NC(CCCN=C(N)N)C(=O)N1CCCC1C(O)=NC(C)C(=N)O (stereo not given) , please.
## Output > 100 µM

## Input Tell me the measured TGI of `CCOC(=O)[C@H]1C[C@]23CN(C(=O)OC(C)(C)C)CC[C@H]2CCC2(SCCCS2)[C@@H]3N1C` , please.
## Output 77.5 µM

## Input Tell me the measured TGI of Cc1cc(C)c(NS(=O)c2cccc([N+](=O)[O-])c2)c(C)c1 (stereo not given) , please.
## Output > 100 µM

## Input Tell me the measured TGI of `COc1ccccc1OC(=O)/C=C/c1ccccc1` , please.
## Output > 100 µM

## Input Tell me the measured TGI of `Cc1nc(N)sc1C(=O)/C=C/c1ccc([N+](=O)[O-])cc1` , please.
## Output > 100 µM

## Input Tell me the measured TGI of `O=C1N[C@@H]2c3c(Br)sc(Br)c3C(=O)[C@@H]2N1` , please.
## Output 8.19 µM

## Input Tell me the measured TGI of `N#CC(C#N)=Cc1ccc(-c2ccc(-c3nc4ccccc4o3)cc2)o1` , please.
## Output > 100 µM

## Input Tell me the measured TGI of `Oc1[nH]c2ccccc2c1N=NC(=S)N1CCCC1` , please.
## Output 29.6 µM

## Input Tell me the measured TGI of COc1nc2c(c(=O)n1C)NC(C(O)C(O)CO)C=N2 (stereo not given) , please.
## Output > 10 µM

## Input Tell me the measured TGI of c1ccc2nc3cc4c(cc3nc2c1)NC12CCCCC1CC1=C(CCCC1)N42 (stereo not given) , please.
## Output 7.03 µM

## Input Tell me the measured TGI of `CN(NC(=O)c1cccs1)C1=NCCN1` , please.
## Output > 100 µM

## Input Tell me the measured TGI of `O=C(NC/C(Cl)=C/Cl)Nc1cccc2c1CCCC2` , please.
## Output > 100 µM

## Input Tell me the measured TGI of O=C(Nc1cc(Cl)c(Cl)cc1Cl)C(=O)C(C(=O)c1ccc2ccccc2c1)C1OC(=O)c2ccccc21 (stereo not given) , please.
## Output 28.7 µM

## Input Tell me the measured TGI of `O=[N+]([O-])c1cc(/C=N/NS(=O)(=O)c2ccc(F)cc2)c(O)c([N+](=O)[O-])c1` , please.
## Output > 100 µM

## Input Tell me the measured TGI of `CC(C)(C)C(=O)[CH-]C(=O)C(F)(F)C(F)(F)C(F)(F)F.CC(C)(C)C(=O)[CH-]C(=O)C(F)(F)C(F)(F)C(F)(F)F.[O-]CC1OC(O)C(O)C(O)C1O.[O-]CC1OC(O)C(O)C(O)C1O.[Ti+4]` , please.
## Output > 100 µM

## Input Tell me the measured TGI of `CC(=O)N[C@@H](Cc1ccc(OP(=O)(O)O)cc1)C(=O)N[C@H]1CCC(=O)N2CCC[C@@H](C(=O)NCc3ccc(O)cc3)N2C1=O` , please.
## Output > 25 µM

## Input Tell me the measured TGI of `CNCCOc1nc2c3cnccc3cc(-c3cc(OC)c(OC)c(OC)c3)c2c2ccncc12` , please.
## Output 0.728 µM

## Input Tell me the measured TGI of O=[N+]([O-])c1ccc(N2N=C(c3ccc4ccccc4c3O)CC2c2ccc(Cl)cc2Cl)c([N+](=O)[O-])c1 (stereo not given) , please.
## Output > 100 µM

## Input Tell me the measured TGI of C=CCC1=CC2(OC)C(=O)C(OC)(OC)C1C1C(OC)(OC)C(=O)C(OC)=CC12CC=C (stereo not given) , please.
## Output > 100 µM

## Input Tell me the measured TGI of `Oc1ccc2ccccc2c1Cc1c(O)ccc2ccccc12` , please.
## Output 48.9 µM

## Input Tell me the measured TGI of `O=C(/C=C/c1ccc(F)c(F)c1)OCCc1ccccc1` , please.
## Output > 100 µM

## Input Tell me the measured TGI of `NC(N)=NS(=O)(=O)c1ccc(NNc2c3ccccc3nc3c(C(=O)Nc4ccc(S(N)(=O)=O)cc4)cccc23)cc1` , please.
## Output > 100 µM

## Input Tell me the measured TGI of `O=C(NNC(=O)c1ccccc1Cl)c1ccccc1O` , please.
## Output > 100 µM

## Input Tell me the measured TGI of `COc1ccc(/C(Cl)=C/c2ccc(Cl)c(Cl)c2)cc1` , please.
## Output 66.2 µM

## Input Tell me the measured TGI of CC(C)Cc1cccc(C(C)C)c1NC(=O)CCC(=O)N/N=C1\C(=N/NC(=O)CCC(=O)Nc2c(C(C)C)cccc2C(C)C)C(c2ccc3c(c2)OCO3)Oc2ccccc21 (stereo not given) , please.
## Output > 100 µM

## Input Tell me the measured TGI of `CO[C@H](c1ccccc1)[C@H](C)N(C)c1ccc2ccccc2c1C1=NC(C)(C)CO1` , please.
## Output 30.6 µM

## Input Tell me the measured TGI of `Nn1c(N=Nc2c(O)[nH]c3ccccc23)n[nH]c1=S` , please.
## Output > 100 µM
